Each entry below carries its reported Inhibition.
system: HepG2; assay: GSK_TCMDC: Percent inhibition of human HepG2 cell line. Test compounds present at 10uM.; format: functional
Numeric answer only, unit % assumed.

molecule=CN1CCCN(Cc2cccc(-c3cccc(NC(=O)c4cccc(C#N)c4)c3)c2)CC1.O=C(O)C(F)(F)F study_system=HepG2 quantitative_result=18
molecule=FC(F)(F)c1cccc(CNCCCCCNCc2ccc(Cl)cc2)c1 study_system=HepG2 quantitative_result=13
molecule=Cc1cnc(N)c(/C=C/c2cncc(C(=O)NCCc3ccc(Cl)cc3Cl)c2)c1.Cl study_system=HepG2 quantitative_result=2
molecule=Cc1cccc(CNc2nc(C)cc(NCCC(=O)NCc3cccc(F)c3)n2)c1.O=C(O)C(F)(F)F study_system=HepG2 quantitative_result=23
molecule=CNc1ccc(CNCc2cccc(-c3ccc(-c4nc5cccc(C)c5[nH]4)cc3)c2)cc1.O=C(O)C(F)(F)F study_system=HepG2 quantitative_result=26

input: Please give the measured Inhibition for this molecule: COc1ccc(-c2nc3cccnc3n2CC(=O)Nc2cc(Cl)c(Cl)cc2Cl)c(OC)c1
output: 99

input: Please give the measured Inhibition for this molecule: CCC(C)CN1C(=O)C(c2ccccc2)(c2ccccc2)N=C1N.O=CO (stereo not given)
output: 11

input: Please give the measured Inhibition for this molecule: OCCCCCCNc1ccnc2[nH]c3ccc(I)cc3c12
output: 27

input: Please give the measured Inhibition for this molecule: O=C(CCn1c2ccccc2c2ccccc21)NN=Cc1ccco1
output: 6

input: Please give the measured Inhibition for this molecule: Cc1sc(N2CCN(C)CC2)nc1C(=O)Nc1ccc(F)cc1C(F)(F)F.O=C(O)C(F)(F)F
output: 7

input: Please give the measured Inhibition for this molecule: CC(C)CN(c1nc(C(=O)NNC(=O)[C@H](CC2CC2)NC(=O)c2cc3cc(OCCN4CCCCC4)ccc3o2)cs1)C1CC1
output: 2

* * *

Each entry below carries its reported Inhibition.
tested on: Plasmodium falciparum; experiment: GSK_TCMDC: Inhibition of Plasmodium falciparum Dd2 in whole red blood cells, using parasite LDH activity as an index of growth. Test compounds present at 2uM; format: functional
Numeric answer only, unit % assumed.

compound=COc1ccc(CNC(=O)c2cnc3c(O)cccc3c2Nc2cccc(NC(=O)c3ccc(Cl)c([N+](=O)[O-])c3)c2)cc1.O=C(O)C(F)(F)F quantitative_result=21
compound="Cc1cc(CNCC2CCC(CNCCCc3ccccc3)CC2)ccc1O (centres undefined)" quantitative_result=0
compound=COc1ccc(NC(=O)C2CCN(CCCCCNC(=O)/C=C/c3ccc(Cl)c(Cl)c3)CC2)cc1 quantitative_result=0
compound=O=C(/C=C/c1ccccc1Cl)Nc1ccc(Br)c(OCCN2CCN(CCN3CCCC3)CC2)c1.O=C(O)C(=O)O quantitative_result=89
compound=CCN1CCN(c2cc(C)c3cc(NC(=O)c4ccc(Br)o4)ccc3n2)CC1 quantitative_result=13

Let us move to another entry and its Inhibition.
input: Please give the measured Inhibition for this compound: C=C(C)CSc1nc2c(c(=O)n1CCc1ccccc1)C1(CCCC1)Cc1ccccc1-2
output: 80

* * *

system: Plasmodium falciparum; experiment: GSK_TCMDC: Inhibition of Plasmodium falciparum 3D7 in whole red blood cells, using parasite LDH activity as an index of growth. Test compounds present at 2uM; type: functional
parameter_measured: Inhibition (%)
Numeric answer only, unit % assumed.

// below: answered molecules
molecule=O=C(O)C(F)(F)F.O=[N+]([O-])c1cccc(CNC2CCN(Cc3ccc(Cl)c(Cl)c3)CC2)c1 output_unit=% quantitative_result=100
molecule=COc1ccc2nccc([C@@H](O)CNCCCN(C)CCOc3cc(F)cc(F)c3)c2c1.O=C(O)C(=O)O output_unit=% quantitative_result=99
molecule=N#Cc1cccc(Nc2cc(C(F)(F)F)nc(Nc3ccccc3)n2)c1.O=C(O)C(F)(F)F output_unit=% quantitative_result=92
molecule=Cc1nc(C)c(-c2ccc(Oc3ccc(Cl)cc3)cc2)c(O)c1I output_unit=% quantitative_result=88
molecule=Cc1cccc2nc(-c3ccc(-c4cccc(CN5CCN(c6ccncc6)CC5)c4)s3)[nH]c12.O=C(O)C(F)(F)F output_unit=% quantitative_result=100
molecule=CCN(CC)CCN(Cc1ccc(-c2ccc(Cl)cc2)cc1)C(=O)Cn1cc(CN(C)C)c(=O)nc1SCc1ccc(F)cc1 output_unit=% quantitative_result=99
molecule=CNC(=O)c1cnc(Nc2ccc(N3CCN(C)CC3)cc2)nc1Nc1cccc([N+](=O)[O-])c1.O=C(O)C(F)(F)F output_unit=% quantitative_result=100
molecule=CON(C)C(=O)[C@@H](CCCCNC(=O)OCc1ccccc1)NC(=O)OC(C)(C)C output_unit=% quantitative_result=98

input: Kindly state the measured Inhibition obtained for O=C(N[C@@H](Cc1ccccc1)C(=O)NC1CCCc2ccccc21)c1ccc(O)c(-c2cccc(C(F)(F)F)c2)c1 (some centres not stated) with Plasmodium falciparum.
output: 91

input: Kindly state the measured Inhibition obtained for Fc1ccc(C=NN=c2cc[nH]c3ccccc23)cc1 with Plasmodium falciparum.
output: 100

input: Kindly state the measured Inhibition obtained for CCN(CC)CCN(Cc1ccc(-c2ccc(C(F)(F)F)cc2)cc1)C(=O)Cn1c(CCc2ccc(F)c(C#N)c2)nc(=O)c2ccccc21.O=C(O)C(O)C(O)C(=O)O with Plasmodium falciparum.
output: 98

input: Kindly state the measured Inhibition obtained for CC(C)C1C(=O)N(S(C)(=O)=O)C2CCN(C(=O)c3ccc(CN4CCCCC4)c([N+](=O)[O-])c3)C12.Cl (configuration not stated) with Plasmodium falciparum.
output: 100

input: Kindly state the measured Inhibition obtained for CCc1c[nH]c2c(N3CCCC3=O)cc(C(=O)N[C@@H](Cc3ccccc3)[C@H](O)CNC(C)(C)c3cccc(C(F)(F)F)c3)cc12.O=CO with Plasmodium falciparum.
output: 98

input: Kindly state the measured Inhibition obtained for CCN(Cc1cccc2ccccc12)c1ccc2nc(N)nc(N)c2c1.Cl with Plasmodium falciparum.
output: 100

input: Kindly state the measured Inhibition obtained for O=C(Nc1cccc([N+](=O)[O-])c1)N(Cc1ccc(Cl)c(Cl)c1)C1CCNCC1 with Plasmodium falciparum.
output: 99

input: Kindly state the measured Inhibition obtained for O=C(NC1CC1)c1ccc(N2CCCC(COc3ccccc3F)C2)nc1 (configuration not stated) with Plasmodium falciparum.
output: 87

input: Kindly state the measured Inhibition obtained for Cc1ccc(NS(=O)(=O)c2ccc(C(C)N3CCC(N4CCCCC4)CC3)cc2)cc1C (configuration not stated) with Plasmodium falciparum.
output: 97
